# credit: the supplement of paper PMC3545927

Target: furin, P09958;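 further: purified furin at 1:10 enzyme:substrate in 50 mM HEPES pH 7.5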
Sequence (P09958 whole entry): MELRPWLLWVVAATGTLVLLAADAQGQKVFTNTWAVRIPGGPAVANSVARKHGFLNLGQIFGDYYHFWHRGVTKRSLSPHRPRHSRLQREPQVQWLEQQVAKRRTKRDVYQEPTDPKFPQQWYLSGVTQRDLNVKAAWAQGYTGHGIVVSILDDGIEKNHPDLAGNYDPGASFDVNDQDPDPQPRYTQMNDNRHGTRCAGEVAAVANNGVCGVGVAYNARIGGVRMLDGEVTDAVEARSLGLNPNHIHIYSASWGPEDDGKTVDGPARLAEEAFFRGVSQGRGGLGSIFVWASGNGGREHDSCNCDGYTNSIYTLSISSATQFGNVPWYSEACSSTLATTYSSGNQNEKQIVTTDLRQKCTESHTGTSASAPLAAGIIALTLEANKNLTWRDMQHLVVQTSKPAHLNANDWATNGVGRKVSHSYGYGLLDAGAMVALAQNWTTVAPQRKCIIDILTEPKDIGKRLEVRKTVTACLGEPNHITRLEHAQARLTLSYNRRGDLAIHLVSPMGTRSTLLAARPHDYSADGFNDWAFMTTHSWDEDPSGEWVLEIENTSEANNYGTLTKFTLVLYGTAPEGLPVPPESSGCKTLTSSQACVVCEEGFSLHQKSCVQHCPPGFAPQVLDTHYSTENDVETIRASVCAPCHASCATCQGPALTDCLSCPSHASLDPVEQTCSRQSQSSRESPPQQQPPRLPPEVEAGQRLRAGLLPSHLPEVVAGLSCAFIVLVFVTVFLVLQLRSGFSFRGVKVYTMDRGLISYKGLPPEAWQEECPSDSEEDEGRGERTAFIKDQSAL
Assay: furin cleavage Z-score vs untreated control; higher = more cleavage, active = 3.5 or more, inactive = 1 or less, 8 variable residues between constant flanks
Settings: 15 min
This is one part of the list. No count for the full screen is at hand.
Note to self: class = bucket of furin cleavage Z-score, per low bin (below 0.02), mid bin (0.02 to below 5), high bin (5 or more)

Input line: Categorize the following entry: CAQTASRQAEAGNASASA [HC1029]
Output line: low bin

Input line: Band for the recorded furin cleavage Z-score of CATAQGMKRSAGNASASA [FS-725] ?
Output line: mid bin

Input line: Bin this entry: CARRRRHPDDAGNASASA [FS-3063]
Output line: mid bin

Input line: Could you place CANIRTGVRTAGNASASA [HC799] in its proper category? Many thanks.
Output line: low bin

Input line: Hello team, could you let me know which band the following sequence falls into: CAEVVTHTWVAGNASASA [HC149]
Output line: low bin

Input line: Please let me know in which category the item CAEVPCHRHSAGNASASA [HC2395] belongs.
Output line: mid bin

Input line: Category lookup for the sequence CASNSLLRHHAGNASASA [HC1384]
Output line: low bin

Input line: Classify this sequence: CAAKGRAGRSAGNASASA [FS-971]
Output line: high bin

Input line: Classify this sequence: CAEVVTWTWVAGNASASA [HC147]
Output line: mid bin

Input line: Using the reported furin cleavage Z-score, which band applies to CARSYRIVRTAGNASASA [FS-1934] ?
Output line: high bin

Input line: Which category does the recorded furin cleavage Z-score put CAEFVTSTWVAGNASASA [HC2167] in?
Output line: low bin

Input line: Hi there! Could you help me figure out the category for CASASRNRRHAGNASASA [FS-1276] please?
Output line: high bin

Input line: Assign a bin to CAKLRRNRRSAGNASASA [FS-1221]
Output line: high bin

Input line: Which category fits this record: CAAVCTRGVAAGNASASA [HC752]
Output line: mid bin
